Tested on: A498 renal
metric: GI50

| molecule | endpoint-value |
| --- | --- |
| C=C(CNCCO)[C@@H]1CC[C@]2(CO)CC[C@]3(C)[C@H](CC[C@@H]4[C@@]5(C)CCC(NCCc6ccc(O)cc6)C(C)(C)[C@@H]5CC[C@]43C)[C@@H]12 (stereo partly drawn) | 1460 nM |
| CCOC(=O)/C=C/c1ccc(C(=O)OCC)[nH]1 | 1610 nM |

Measured GI50 for this entry CC/C=C\C[C@H](O)C/C=C1/C(=O)C=C[C@@H]1C/C=C\CCCC(N)=O on A498 renal: 2900 nM

----------
Tested on: SF-268 CNS
Assay: NCI tumour cell line growth inhibition, 48 h
Some molecules, each annotated with its measured TGI.
Numeric only. Scale: µM

Study these solved cases before continuing.
| substance-smiles | units-symbol | TGI |
| --- | --- | --- |
| CC1(C)C(=O)/C(=C\c2ccco2)C[C@]2(C)[C@H]3CC=C4[C@@H]5C[C@](C)(C(=O)O)CC[C@]5(C)CC[C@@]4(C)[C@]3(C)CC[C@@H]12 | µM | 28.2 |
| COC(=O)c1c(O)ccc2c1c1c(n2C)C(=O)c2ccccc2C1=O | µM | 43.6 |
| Cc1ccc2c3c1O[C@H]1c4nc5ccccc5cc4C[C@@]4(O)[C@@H](C2)N(CC2CC2)CC[C@]314 | µM | 25.6 |

API: the following record is the query input.
What the record says about O=C(CSc1nc2ccc(I)cc2c(=O)n1Cc1ccccc1)Nc1ccc(Br)cc1 : TGI is 28
